B1: KLHL20 (parent)
chain: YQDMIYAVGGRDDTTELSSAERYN

Variants of: B1
Assay: protein stability index of a GFP-peptide fusion (GPS, HEK-293T) (PSI 1-6); higher = more stable;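 also: lentivirally expressed fusions sorted by FACS into six bins by GFP to DsRed ratio, PSI derived from sequencing read proportions per bin multiplied by bin number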
Conditions: c terminus: a fixed tail appended
Lab note: class by protein stability index, see 1: < 2; 2: ≥ 2 and < 3; 3: ≥ 3

# input Which class is correct for the following variant? "G10H"
# output 2

More entries:
# input Please indicate the class for "E21K" based on its protein stability index.
# output 2

# input Lookup "L17I"
# output 2

# input Request: "T15H"
# output 2

# input Record: "D13M"
# output 1
